This listing pairs sequences with measured self-splicing fitness (ln).
Assay: self-splicing fitness, log relative to wild type (ln ratio); higher = more splicing; Tetrahymena group I intron in knt gene, E. coli kanamycin selection, DiMSum; sequences stand for … in CUCUCU…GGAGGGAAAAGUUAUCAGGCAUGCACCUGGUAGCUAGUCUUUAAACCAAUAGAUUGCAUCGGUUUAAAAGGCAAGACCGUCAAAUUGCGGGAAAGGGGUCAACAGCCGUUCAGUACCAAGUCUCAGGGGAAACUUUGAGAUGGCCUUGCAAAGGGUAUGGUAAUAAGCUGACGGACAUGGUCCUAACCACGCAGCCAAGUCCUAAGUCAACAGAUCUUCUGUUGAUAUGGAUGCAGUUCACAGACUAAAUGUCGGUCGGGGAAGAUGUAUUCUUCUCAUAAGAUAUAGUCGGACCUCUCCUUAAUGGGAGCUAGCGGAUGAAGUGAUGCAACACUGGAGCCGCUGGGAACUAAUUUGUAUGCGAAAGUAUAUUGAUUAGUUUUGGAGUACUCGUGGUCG;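 further: selection with 25 µg/mL kanamycin versus none on LB agar overnight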
Settings: 30 °C

Known results for sequences:
Inquiry: Quick check: self-splicing fitness (ln) of AACCAGCAAUAUUACGUCAA ?
Reply text: -1.38

Inquiry: Same again, this time with UGUCAGCAAUAUUACGCUAA
Reply text: -0.476

More entries:
Inquiry: Quick check: self-splicing fitness (ln) of UAUGAGCAAUAUUACGAUCA ?
Reply text: -2.24

Inquiry: Same again, this time with ACCAAGCAAUAUUACGGUUG
Reply text: -3.21

Inquiry: Same again, this time with CUGAAGCAAUAUUACGCUGC
Reply text: -2.12

Inquiry: Same again, this time with GUUAAGCAAUAUUACGCGCA
Reply text: -0.293

Inquiry: Same again, this time with AAGCAGCAAUAUUACGCUAA
Reply text: -1.46

====

Experiment: self-splicing fitness, log relative to wild type (ln ratio); higher = more splicing; Tetrahymena group I intron in knt gene, E. coli kanamycin selection, DiMSum; sequences stand for … in CUCUCU…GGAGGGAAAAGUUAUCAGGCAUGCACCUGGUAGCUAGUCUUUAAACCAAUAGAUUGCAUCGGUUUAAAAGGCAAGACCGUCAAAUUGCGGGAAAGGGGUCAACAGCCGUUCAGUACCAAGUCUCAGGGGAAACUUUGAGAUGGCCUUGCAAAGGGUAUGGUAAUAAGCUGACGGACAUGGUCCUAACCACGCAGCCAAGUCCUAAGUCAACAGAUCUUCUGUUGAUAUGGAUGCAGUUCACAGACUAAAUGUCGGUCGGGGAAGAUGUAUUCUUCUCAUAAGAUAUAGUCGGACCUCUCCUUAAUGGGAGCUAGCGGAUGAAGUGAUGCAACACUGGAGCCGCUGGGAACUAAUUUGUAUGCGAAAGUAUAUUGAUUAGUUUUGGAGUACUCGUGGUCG
Conditions: 30 °C
observable: self-splicing fitness (ln)
Number only, please.

Inquiry: Quick check: self-splicing fitness (ln) of AAGGAGCAAUAUUACGGGGU ?
Reply text: -3.61

Inquiry: Same again, this time with CGCAAGCAAUAUUACGUUUU
Reply text: -4.46

Inquiry: Same again, this time with AGCGAGCAAUAUUACGGCUA
Reply text: -0.634

Inquiry: Same again, this time with GAGUAGCAAUAUUACGGUUG
Reply text: -2.7

Inquiry: Same again, this time with AAAUAGCAAUAUUACGAACU
Reply text: 1.11

Inquiry: Same again, this time with CGCCAGCAAUAUUACGAGAC
Reply text: -3.23

Inquiry: Same again, this time with GCUCAGCAAUAUUACGGCGA
Reply text: -1.73

Inquiry: Same again, this time with GCUAAGCAAUAUUACGGCUU
Reply text: -0.732

Inquiry: Same again, this time with GGCCAGCAAUAUUACGUUCC
Reply text: -1.28

Inquiry: Same again, this time with GAGCAGCAAUAUUACGAUUC
Reply text: -0.868

Please look at the following sequence next.
Inquiry: Quick check: self-splicing fitness (ln) of GGUCAGCAAUAUUACGAGGC ?
Reply text: -3.61

Source of measurements: the supplement of paper PMC7877785
